- tested.target: Voltage-dependent T-type calcium channel subunit alpha-1H (Homo sapiens);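 note: channel activity triggered by adding a high calcium stimulation buffer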
- Sequence (O95180 whole entry): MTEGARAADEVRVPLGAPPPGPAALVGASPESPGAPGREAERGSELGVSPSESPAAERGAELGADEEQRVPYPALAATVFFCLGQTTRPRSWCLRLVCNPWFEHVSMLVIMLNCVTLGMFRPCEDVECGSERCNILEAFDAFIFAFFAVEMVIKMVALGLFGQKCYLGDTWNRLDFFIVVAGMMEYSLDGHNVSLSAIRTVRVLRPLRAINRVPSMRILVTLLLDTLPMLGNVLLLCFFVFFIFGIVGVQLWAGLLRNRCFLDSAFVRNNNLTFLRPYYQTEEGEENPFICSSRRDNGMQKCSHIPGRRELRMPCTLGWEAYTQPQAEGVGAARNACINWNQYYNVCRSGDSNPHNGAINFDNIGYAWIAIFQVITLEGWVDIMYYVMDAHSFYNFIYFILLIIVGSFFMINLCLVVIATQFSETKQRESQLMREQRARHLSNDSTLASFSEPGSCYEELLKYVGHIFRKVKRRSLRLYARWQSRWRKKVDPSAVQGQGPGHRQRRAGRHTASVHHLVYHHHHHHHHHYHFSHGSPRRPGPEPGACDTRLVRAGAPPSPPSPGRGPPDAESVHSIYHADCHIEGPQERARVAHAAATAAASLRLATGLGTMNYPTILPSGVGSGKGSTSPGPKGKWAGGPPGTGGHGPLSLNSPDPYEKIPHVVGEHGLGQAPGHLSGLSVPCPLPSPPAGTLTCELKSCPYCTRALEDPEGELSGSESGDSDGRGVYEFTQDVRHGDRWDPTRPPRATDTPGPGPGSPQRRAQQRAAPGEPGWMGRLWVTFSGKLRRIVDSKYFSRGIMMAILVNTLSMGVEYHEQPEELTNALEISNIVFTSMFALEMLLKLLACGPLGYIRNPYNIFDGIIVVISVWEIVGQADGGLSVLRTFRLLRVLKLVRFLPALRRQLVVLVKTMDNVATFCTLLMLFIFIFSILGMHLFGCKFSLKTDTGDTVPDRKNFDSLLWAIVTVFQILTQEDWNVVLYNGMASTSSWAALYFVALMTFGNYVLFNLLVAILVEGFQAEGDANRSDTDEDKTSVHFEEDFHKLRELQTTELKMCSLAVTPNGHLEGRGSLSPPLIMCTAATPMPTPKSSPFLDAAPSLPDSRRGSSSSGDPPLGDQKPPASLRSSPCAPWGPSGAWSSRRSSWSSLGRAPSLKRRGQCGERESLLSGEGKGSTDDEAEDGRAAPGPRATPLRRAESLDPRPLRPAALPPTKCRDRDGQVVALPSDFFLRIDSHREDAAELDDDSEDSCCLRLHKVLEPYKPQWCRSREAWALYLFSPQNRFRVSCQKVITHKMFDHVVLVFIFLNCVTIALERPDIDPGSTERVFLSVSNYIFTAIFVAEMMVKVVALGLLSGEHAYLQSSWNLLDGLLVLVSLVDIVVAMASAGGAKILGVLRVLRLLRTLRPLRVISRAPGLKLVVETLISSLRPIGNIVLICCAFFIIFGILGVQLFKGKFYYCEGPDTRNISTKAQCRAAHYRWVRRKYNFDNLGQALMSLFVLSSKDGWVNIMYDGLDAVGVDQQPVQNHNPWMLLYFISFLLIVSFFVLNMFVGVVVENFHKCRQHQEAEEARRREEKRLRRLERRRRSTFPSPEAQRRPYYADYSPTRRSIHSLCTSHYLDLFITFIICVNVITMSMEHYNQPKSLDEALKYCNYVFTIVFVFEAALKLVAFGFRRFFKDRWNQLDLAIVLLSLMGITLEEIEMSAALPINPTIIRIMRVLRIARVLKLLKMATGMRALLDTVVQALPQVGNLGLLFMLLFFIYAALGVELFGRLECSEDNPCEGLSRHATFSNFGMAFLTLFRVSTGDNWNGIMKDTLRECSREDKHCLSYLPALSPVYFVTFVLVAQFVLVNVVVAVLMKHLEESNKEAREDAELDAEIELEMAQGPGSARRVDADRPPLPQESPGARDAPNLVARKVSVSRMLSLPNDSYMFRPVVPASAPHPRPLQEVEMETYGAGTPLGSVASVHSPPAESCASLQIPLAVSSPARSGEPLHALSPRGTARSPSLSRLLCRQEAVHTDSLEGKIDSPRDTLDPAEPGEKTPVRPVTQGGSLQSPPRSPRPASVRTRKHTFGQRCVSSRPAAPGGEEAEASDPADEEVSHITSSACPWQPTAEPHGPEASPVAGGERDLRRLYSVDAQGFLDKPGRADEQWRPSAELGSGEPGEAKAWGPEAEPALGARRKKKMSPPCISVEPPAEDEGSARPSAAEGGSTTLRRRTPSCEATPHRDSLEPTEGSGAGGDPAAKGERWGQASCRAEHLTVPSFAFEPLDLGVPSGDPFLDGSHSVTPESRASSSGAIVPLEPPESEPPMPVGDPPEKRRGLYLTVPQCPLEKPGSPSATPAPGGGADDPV
- Assay type: functional
Calls of active or inactive are those of the source.
assay.endpoint: EC50

| compound | observed |
| --- | --- |
| Cc1ccc(NC(=O)CSc2nccn2Cc2ccccc2)cc1C | 2.74 µM (active) |
| COc1cccc(-c2csc(N3CCN(C(=O)NC45CC6CC(CC(C6)C4)C5)CC3)n2)c1 | 5.32 µM (active) |
| COC(=O)c1ccccc1NC(=O)c1cccc(NC(=O)c2ccc(Br)o2)c1C | 5.7 µM (active) |
| O=C1CC(c2nc3ccccc3[nH]2)CN1c1cccc(C(F)(F)F)c1 (stereo not given) | 8.89 µM (active) |
| Cc1ccc(-c2nnn(CC(=O)N(c3ccccc3F)C(C(=O)NCC3CCCO3)c3c[nH]c4ccccc34)n2)cc1 (stereo not given) | 4 µM (active) |
| Cc1ccc(C)c(NC(=O)C2C(c3ccccc3)C2(Cl)Cl)c1 (stereo not given) | 0.968 µM (active) |
| O=C(Cc1c[nH]c2ccccc12)OCCOC(=O)Cc1c[nH]c2ccccc12 | 4.77 µM (active) |
| CC(C)CC(/C(O)=C(\C#N)c1nc2ccccc2[nH]1)N1C(=O)c2ccccc2C1=O (stereo not given) | 14.8 µM (active) |
| CN(C(=S)NC(=O)CCCOc1ccc(Cl)cc1Cl)c1ccccc1 | 4.13 µM (active) |
| O=C(Cc1c[nH]c2ccccc12)Nc1nc2ccccc2[nH]1 | 6.91 µM (active) |

###

- tested.target: Eukaryotic translation initiation factor 4E (Mus musculus, UniProt P63073)
- Sequence (P63073 whole entry): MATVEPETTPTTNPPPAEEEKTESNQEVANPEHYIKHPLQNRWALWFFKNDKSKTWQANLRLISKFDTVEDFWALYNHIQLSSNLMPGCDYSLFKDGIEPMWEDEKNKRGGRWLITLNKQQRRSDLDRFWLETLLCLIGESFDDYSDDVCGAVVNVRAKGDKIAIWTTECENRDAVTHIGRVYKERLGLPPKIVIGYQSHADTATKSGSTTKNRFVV
- assay.comment: eIF4E–eIF4G protein interaction inhibitors, dose response, biochemical, TR-FRET (AID 855);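 note: potency for disrupting eIF4E binding to eIF4GI seen as loss of FRET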
- Type: functional
Activity calls are given as the source filed them.
Possible outcomes: active, inactive

| molecule | assigned.category |
| --- | --- |
| CCOc1ccccc1NC(=O)C1CCN(S(=O)(=O)c2cccc3cccnc23)CC1 | inactive |
| Cc1ccc(NC2c3ncccc3C(=O)N2c2ccccc2C)cc1C (centres undefined) | active |
| Cc1nnc(=O)[nH]c1NCc1ccco1 | inactive |
| Cc1ccc(O)c(NC2=C(Cl)C(=O)N(Cc3ccccc3)C2=O)c1 | inactive |

###

The compounds listed here are annotated with their IC50.
- tested.target: Probable nicotinate-nucleotide adenylyltransferase (Staphylococcus aureus (strain N315), UniProt P65502);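 note: confirmatory retest of primary uHTS inhibitor hits against NadD over a range of doses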
- Sequence (P65502 whole entry): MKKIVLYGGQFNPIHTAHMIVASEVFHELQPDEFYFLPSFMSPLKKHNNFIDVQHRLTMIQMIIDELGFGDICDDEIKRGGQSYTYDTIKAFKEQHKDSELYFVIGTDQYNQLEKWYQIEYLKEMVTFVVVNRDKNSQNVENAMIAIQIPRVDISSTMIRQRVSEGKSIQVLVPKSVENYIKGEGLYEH
- Type: functional, Staphylococcus aureus subsp. aureus N315
The source made the active and inactive calls.
assay.endpoint: IC50

| structure.as.smiles | observed |
| --- | --- |
| COc1ccc(NC(=O)N(C)C[C@H]2Oc3ccc(NC(=O)c4ccncc4)cc3C(=O)N([C@H](C)CO)C[C@@H]2C)cc1 | 27.8 µM (active) |
| Cn1c2ccccc2c2cc(/C=N/NC(=O)c3cc(O)ccc3O)ccc21 | 18 µM (active) |
| Cc1cc(N(CCCl)CCCl)ccc1C=NNC(=O)Cc1cc(=O)oc2cc(O)ccc12 | 8.75 µM (active) |
| CN(CCC#N)C(=O)COC(=O)c1c2c(nc3ccccc13)/C(=C/c1ccco1)CC2 | 7.86 µM (active) |

###

- tested.target: Corticotropin-releasing factor receptor 2/Corticotropin-releasing factor-binding protein (Homo sapiens, UniProt P24387+Q13324)
- Sequence (Q13324 whole entry): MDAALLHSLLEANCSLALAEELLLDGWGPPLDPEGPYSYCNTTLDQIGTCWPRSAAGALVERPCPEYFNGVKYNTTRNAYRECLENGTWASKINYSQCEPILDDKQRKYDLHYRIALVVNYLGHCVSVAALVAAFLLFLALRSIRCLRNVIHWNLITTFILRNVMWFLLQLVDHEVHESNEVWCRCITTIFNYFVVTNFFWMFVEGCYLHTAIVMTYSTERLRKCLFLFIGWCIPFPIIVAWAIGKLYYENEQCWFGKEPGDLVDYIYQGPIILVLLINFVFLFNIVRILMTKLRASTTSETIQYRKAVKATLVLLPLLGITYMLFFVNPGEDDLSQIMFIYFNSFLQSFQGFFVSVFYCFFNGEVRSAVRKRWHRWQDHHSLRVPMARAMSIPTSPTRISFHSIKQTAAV
- Sequence (P24387 whole entry): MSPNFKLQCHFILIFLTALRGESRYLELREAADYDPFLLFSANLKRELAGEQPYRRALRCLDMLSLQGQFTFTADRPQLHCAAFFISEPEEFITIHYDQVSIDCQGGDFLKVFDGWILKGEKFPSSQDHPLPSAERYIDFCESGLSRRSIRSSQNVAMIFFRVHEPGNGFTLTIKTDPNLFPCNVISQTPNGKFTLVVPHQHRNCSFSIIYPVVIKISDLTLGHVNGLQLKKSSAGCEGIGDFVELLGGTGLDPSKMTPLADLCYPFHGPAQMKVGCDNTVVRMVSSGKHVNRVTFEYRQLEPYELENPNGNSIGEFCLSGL
- assay.comment: activators of CRF receptor 2 with binding protein – uHTS hits, confirmation (AID 602473)
- Type: functional
- experimental.setup: read-out: EC50_Mean
Active and inactive are the calls of the source.
Possible outcomes: YES for active, NO for inactive

| compound | assigned.category |
| --- | --- |
| Cc1nc2ccc(NS(=O)(=O)c3ccc(C)c(C)c3)cc2s1 | NO |
| Cc1ccc2c(c1)nnc1nnc(SCC(=O)O)n12 | NO |
| O=S(=O)(Nc1ccc2c(c1)CCC2)c1cccs1 | NO |
| Cc1ccc(-c2noc(CN3CCC(C(N)=O)CC3)n2)cc1 | NO |
| CCCNS(=O)(=O)c1cccc(C(=O)NC2CCCc3ccccc32)c1 (stereo not given) | NO |
| CCOc1ccc(/C=N/NC(=O)C(C)N(c2ccc(OC)cc2)S(C)(=O)=O)cc1OCC (stereo not given) | NO |
| C#CC[N+](C)(C)CCCCCCCC | NO |
| CCCCOc1ccc(OC(=O)Nc2cc(Cl)ccc2OC)cc1 | NO |
| CCOc1ccccc1N(CC(=O)N1CCOCC1)S(=O)(=O)c1ccccc1 | YES |
| O=C1NC(Cc2c[nH]c3ccccc23)C(=O)N1Cc1cccc2ccccc12 (stereo not given) | NO |
| Cc1ccc2c(CC(=O)Nc3sccc3C(N)=O)coc2c1 | NO |
| Cc1cc2oc(=O)cc(-c3ccccc3)c2c(C)c1-c1ccc(O)cc1 | NO |
| O=S(=O)(NC1CCCCC1N1CCOCC1)c1ccc(Cl)cc1 (stereo not given) | YES |
| Cc1ccc(C(=O)N/N=C(/CC(=O)c2cccs2)C(F)(F)F)cc1 | NO |
| COC(=O)c1sccc1NS(=O)(=O)c1ccccc1 | NO |
| Oc1ccc2ccccc2c1CN1CCCCC1 | YES |
| O=C(O)c1ccc(Cl)c(NC(=S)NC(=O)c2cccc(COc3ccccc3)c2)c1 | NO |
| COc1ccc(S(=O)(=O)Nc2nc3ccccc3nc2NCC2CCCO2)cc1 (stereo not given) | NO |
| C=C1C(C(=O)Nc2ccccc2)C1C(=O)Nc1ccccc1 (stereo not given) | NO |
| CCN(CC)C(=O)c1cnc2ccc(S(=O)(=O)Nc3cc(C)cc(C)c3)cc2c1O | YES |
| CCNc1nc(NCC)n2c(SCc3ccc(F)cc3)nnc2n1 | NO |
| CCOc1ccccc1NC(=O)COC(=O)C1COc2ccccc2O1 (stereo not given) | NO |
| CCOC(=O)Cn1cc(C=C2C(=O)N(C)C(=O)N(C)C2=O)c2ccccc21 | YES |
| Cc1cccc(C)c1NC(=S)Nc1ccc(F)cc1 | NO |
| CCOC(=O)C1CCN(c2cc3c(cc2NC(=O)c2cc(OC)ccc2Br)n(C)c(=O)n3C)CC1 | NO |
